Test: anti-RSV activity of probe candidates, cell-based (AID 2405)
Conditions: RSV cytopathic effect inhibition, HEp-2 cells, active compounds read high; at 100 µM unless noted
Calls of active or inactive are those of the source. How the calls were made is not given here.
assay-metric: maximum inhibition

compound | result
Cc1cccc2c1-c1sc(C(=O)NCCCN3CCC(C)CC3)cc1CO2 | 0.67% [at 0.2 µM] (inactive)
Cc1cccc2c(=O)n3c(nc12)CCC3 | 1.55% [at 0.2 µM] (inactive)
CCN(CC)CCCNC(=S)N1CCN(c2nc(-c3ccc(F)cc3)cs2)CC1 | 0.61% [at 0.2 µM] (inactive)
OC1c2c(F)cccc2N=C2CCCCCN21 (stereo unspecified) | 1.87% [at 12.5 µM] (inactive)
COc1ccc(Cn2nc(C)cc2OC(=O)c2ccccc2)cc1 | 0.91% [at 25 µM] (inactive)
COc1ccc(-c2csc(N(Cc3ccccc3)C(=O)c3ccccc3Cl)n2)cc1 | 10.1% [at 25 µM] (inactive)
Cc1cccc2nc3n(c(=O)c12)CCC3 | 1.49% [at 25 µM] (inactive)
COc1cccc(C(NC(=O)c2ccccc2)c2ccc3cccnc3c2O)c1 (stereo unspecified) | 3.45% [at 12.5 µM] (inactive)
O=C(CSc1nc2ccccc2c(=O)n1-c1ccc(Cl)cc1)Nc1ccc2c(c1)CCC2 | 11.5% [at 25 µM] (inactive)
CC1CC(C)CN(CCCNC(=O)c2cc3c(s2)-c2ccccc2OC3)C1 (stereo unspecified) | 1.49% [at 25 µM] (inactive)
Brc1ccc2c(c1)CN1CCCC1=N2 | 25.2% [at 50 µM] (inactive)
Cc1ccc2nc(SCC(=O)Nc3ccc4c(c3)CCC4)n(-c3ccccc3)c(=O)c2c1 | 47.5% [at 12.5 µM] (inactive)
Cc1cc(OC(=O)c2c(F)cccc2F)n(Cc2ccccc2)n1 | 0.49% [at 3.13 µM] (inactive)
COc1ccc(NC(=O)CSc2nc3ccccc3c(=O)n2-c2ccc(F)cc2)cc1 | 18.6% (inactive)
OC1c2cc(Br)ccc2N=C2CCCCCN21 (stereo unspecified) | 1.05% (inactive)
COc1cccc(NC(=O)CSc2nc3ccccc3c(=O)n2-c2ccc(F)cc2)c1 | 48.3% (inactive)
OC1c2cc(Br)ccc2N=C2CCCCN21 (stereo unspecified) | 6.83% (inactive)
O=c1c2cc([N+](=O)[O-])ccc2nc2n1CCC2 | 1.3% (inactive)
COc1ccc(-c2csc(N(CCCN(C)C)C(=O)c3ccccc3C)n2)cc1 | 0.96% [at 0.2 µM] (inactive)
O=C(CSc1nc2ccccc2c(=O)n1-c1ccc(F)cc1)Nc1cccc2ccccc12 | 16.6% (inactive)
CC1CC(C)CN(C(=O)CSc2nc3ccccc3c(=O)n2-c2ccc(F)cc2)C1 (stereo unspecified) | 2.13% (inactive)
COc1ccc(-c2csc(NC(=O)c3ccccc3Cl)n2)cc1 | 2.47% [at 12.5 µM] (inactive)
O=C(Nc1nc(-c2ccc(Cl)cc2)cs1)c1ccc(Cl)cc1 | 2.44% (inactive)
CN(C)CCCN1c2ccc([N+](=O)[O-])cc2CCc2cc([N+](=O)[O-])ccc21 | 10.2% [at 50 µM] (inactive)
O=C(CSc1nc2ccccc2c(=O)n1-c1ccc(Cl)c(Cl)c1)Nc1ccc2c(c1)CCC2 | 5.37% (inactive)
CCOC(=O)C1(Cc2ccccc2C(F)(F)F)CCN(C2CCN(C(C)C)CC2)CC1 | 0.09% [at 0.2 µM] (inactive)
O=C(CSc1nc2ccccc2c(=O)n1-c1ccc(F)cc1F)Nc1ccc(N2CCOCC2)cc1 | 1.49% (inactive)
O=C(CSc1nc2ccccc2c(=O)n1-c1ccccc1)Nc1ccc2c(c1)CCC2 | 18.8% [at 12.5 µM] (inactive)
COc1ccc(-c2csc(NC(=O)c3ccccc3F)n2)cc1 | 1.37% (inactive)
O=c1c2c(F)cccc2nc2n1CCC2 | 2.17% [at 0.39 µM] (inactive)
O=C(CSc1nc2ccc(F)cc2c(=O)n1-c1ccccc1)Nc1ccc2c(c1)CCC2 | 14.7% (inactive)
COc1ccc(-c2csc(N(CCCN(C)C)C(=O)c3ccccc3Cl)n2)cc1 | 0.91% [at 6.25 µM] (inactive)
COc1ccc(-c2csc(N(C)C(=O)c3ccccc3Cl)n2)cc1 | 2.66% [at 12.5 µM] (inactive)
COc1cccc(-n2c(SCC(=O)Nc3ccc4c(c3)CCC4)nc3ccccc3c2=O)c1 | 8.16% (inactive)
CC1CCCN(CCCNC(=O)c2cc3c(s2)-c2ccccc2OC3)C1 (stereo unspecified) | 3.5% [at 25 µM] (inactive)
O=C(CSc1nc2ccccc2c(=O)n1-c1ccccc1F)Nc1ccc2c(c1)CCC2 | 7.99% [at 12.5 µM] (inactive)
CCN(CC)CCCNC(=S)N1CCN(c2nc(-c3ccccc3)cs2)CC1 | 1.02% [at 0.2 µM] (inactive)
O=c1c2cc(Cl)cc(Cl)c2nc2n1CCC2 | 5.87% (inactive)
O=C(CSc1nc2ccccc2c(=O)n1-c1ccc(F)c(Cl)c1)Nc1ccc2c(c1)CCC2 | 6.32% (inactive)
CC1CCCC(C)N1CCCNC(=O)c1cc2c(s1)-c1ccccc1OC2 (stereo unspecified) | 0.79% [at 0.78 µM] (inactive)
OC1c2cc(Cl)cc(Cl)c2N=C2CCCN21 (stereo unspecified) | 4.35% (inactive)
CC1(O)c2cc(Br)ccc2N=C2CCCN21 (stereo unspecified) | 2.76% (inactive)
OC1c2cc(I)ccc2N=C2CCCN21 (stereo unspecified) | 0.75% [at 50 µM] (inactive)
COc1ccc(-c2csc(NC(=O)c3cccc(Cl)c3)n2)cc1 | 1.49% [at 25 µM] (inactive)
c1ccc2c(c1)CN1CCCC1=N2 | 1.32% [at 6.25 µM] (inactive)
COc1ccccc1NC(=O)CSc1nc2ccccc2c(=O)n1-c1ccc(F)cc1 | 3.44% [at 6.25 µM] (inactive)

----------
Overview of reported maximum inhibition across a group of compounds:
Assay: anti-RSV activity of probe candidates, cell-based (AID 2405)
Conditions: RSV cytopathic effect inhibition, HEp-2 cells, active compounds read high; at 100 µM unless noted
Calls of active or inactive are those of the source. No rule for the calls is given here.

compound-smiles | maximum inhibition
CC1CCN(CCCNC(=O)c2cc3c(s2)-c2ccccc2OC3)CC1 | 3.42% [at 50 µM] (inactive)
O=c1c2cc(I)ccc2nc2n1CCC2 | 5.94% (inactive)
CCOC(=O)C1(Cc2ccccc2C(F)(F)F)CCN(C2CCN(C(C)=O)CC2)CC1 | 1.32% [at 6.25 µM] (inactive)
COc1ccc(-c2csc(NC(=O)c3ccc(Cl)cc3)n2)cc1 | 0.97% [at 25 µM] (inactive)
